Listed compounds paired with reported Fold change (Log 2) vs untreated, NAGS expression
# Test system: NAGS
# Format: cell-based, human

Please look at this compound and report its Fold change (Log 2) vs untreated, NAGS expression: COCCOCOc1cc2ccc(-c3ccc(C(=O)O)cc3)cc2cc1C12CC3CC(CC(C3)C1)C2 [CD 2665]
0.62 Log 2

Look up and state reported Fold change (Log 2) vs untreated, NAGS expression for [H]/N=C(/N)N/C(=N/[H])NCCc1ccccc1 [Phenformin]
1.38 Log 2

For the compound O=S(=O)(c1ccccc1)N(CC(F)(F)F)c1ccc(C(O)(C(F)(F)F)C(F)(F)F)cc1 [T0901317] , report Fold change (Log 2) vs untreated, NAGS expression.
0.72 Log 2

Name the recorded Fold change (Log 2) vs untreated, NAGS expression of the compound listed here: O=C(NCCCn1ccnc1)c1cc(-c2ccco2)on1 [SKL2001]
0.95 Log 2

Output measured Fold change (Log 2) vs untreated, NAGS expression for this item: O=C1NC(=O)/C(=C/c2cccc(C(F)(F)F)c2)S1 [SMI-4a]
1.25 Log 2

Now let's try a different one.
Tell me its Fold change (Log 2) vs untreated, NAGS expression given COc1cc2c(cc1OC)CN(C(=O)/C=C/c1c(-c3ccccc3)n(C)c3ncccc13)CC2 [SIS3] as the entry.
0.64 Log 2

---

# Test system: SLC25A15
# EXPERIMENTAL DETAILS: RNA-seq of compound-treated primary human hepatocytes, SLC25A15 expression
# Type: cell-based
# EXPERIMENTAL SETUP: 10 μM, primary human hepatocytes, triplicate (Table 24, FIG. 16A-B)
Catalogue of molecules with associated Relative SLC25A15 level vs Untreated (±Standard Deviation)
# answer = number (no unit)

Past entries and their recorded results:
Query Relative SLC25A15 level vs Untreated (±Standard Deviation) for O=C(Nc1c[nH]nc1-c1nc2ccc(CN3CCOCC3)cc2[nH]1)NC1CC1 [AT9283]
2.94

Using known records, supply Relative SLC25A15 level vs Untreated (±Standard Deviation) for COc1cc2c(Oc3ccc(NC(=O)C4(C(=O)Nc5ccc(F)cc5)CC4)cc3F)ccnc2cc1OCCCN1CCOCC1 [Foretinib]
1.97

Specify Relative SLC25A15 level vs Untreated (±Standard Deviation) for COc1cccc2cc(-c3nc([C@H]4CC[C@H](C(=O)O)CC4)n4ncnc(N)c34)[nH]c12 [OSI-027] and stop.
1.52

For the molecule CN1C/C=C/CCOc2cccc(c2)-c2ccnc(n2)Nc2cccc(c2)C1 [SB1317/TG02] , give its measured Relative SLC25A15 level vs Untreated (±Standard Deviation) value.
2.71

Please give measured Relative SLC25A15 level vs Untreated (±Standard Deviation) of the following entry: Cc1cc(-c2nc(-c3ccc(OC(F)(F)F)cc3)no2)nn1Cc1ccnc(N2CCN(C3CC3)CC2)c1 [BAY 87-2243]
2.70

Others:
Name the recorded Relative SLC25A15 level vs Untreated (±Standard Deviation) of the molecule listed here: C=CCNC1=C2C[C@@H](C)C[C@H](OC)[C@H](O)[C@@H](C)/C=C(\C)[C@H](OC(N)=O)[C@@H](OC)/C=C\C=C(/C)C(=O)NC(=CC1=O)C2=O [17-AAG (Tanespimycin), Tanespimycin]
1.46

Output measured Relative SLC25A15 level vs Untreated (±Standard Deviation) for this item: COc1ccc(-c2ccc3c(N4CCOC[C@@H]4C)nc(N4CCOC[C@@H]4C)nc3n2)cc1CO [AZD-8055]
1.64

Dear colleague, please send me the reported Relative SLC25A15 level vs Untreated (±Standard Deviation) for O=C(NOCCO)c1cc(CN2OCCCC2=O)c(F)c(F)c1Nc1ccc(I)cc1F [RO4987655)] when you can.
1.31

---

# Test system: ASS1
# EXPERIMENTAL DETAILS: RNA-seq of compound-treated primary human hepatocytes, ASS1 expression
# Type: cell-based
# EXPERIMENTAL SETUP: primary human hepatocytes, RNA-seq (Table 4)
READOUT LABEL: Fold change (Log 2) vs untreated, ASS1 expression
Record the value in Log 2, omitting the unit from your answer.

Reference set (5 entries):
State, in one line, measured Fold change (Log 2) vs untreated, ASS1 expression of O=C1NC(=O)/C(=C/c2cccc(C(F)(F)F)c2)S1 [SMI-4a]
0.69

Provide Fold change (Log 2) vs untreated, ASS1 expression value for the following compound: C[C@]12CC[C@H]3[C@@H](CCC4=CC(=O)CC[C@@]43C)[C@@H]1CC[C@@H]2C(=O)CO [Deoxycorticosterone]
0.6

Recall and state the measured Fold change (Log 2) vs untreated, ASS1 expression for COCCOc1ccc2c(c1)ncn2-c1ccc2cccc(N3CCC(N)CC3)c2n1 [CP-673451] .
1.52

Retrieve Fold change (Log 2) vs untreated, ASS1 expression measured for COc1cccc2c1C(=O)c1c(O)c3c(c(O)c1C2=O)C[C@@](O)(/C(CO)=N/NC(=O)CCCCCN1C(=O)C=CC1=O)C[C@@H]3O[C@H]1C[C@H](N)[C@H](O)[C@H](C)O1 [INNO-206 (aldoxorubicin), aldoxorubicin] and print it.
0.58

Give the reported value of Fold change (Log 2) vs untreated, ASS1 expression for this record: S=C(NCc1ccc2c(c1)OCO2)N1CCN(c2ncnc3c2oc2ccccc23)CC1 [Amuvatinib]
0.69

Further cases:
Look up Fold change (Log 2) vs untreated, ASS1 expression of CN(C)[C@@H]1C(O)=C(C(N)=O)C(=O)[C@@]2(O)C(O)=C3C(=O)c4c(O)c(NC(=O)CN5CCCC5)cc(F)c4C[C@H]3C[C@@H]12 [TP-434 (Eravacycline), Eravacycline] and report it.
0.76

---

# Tested on: ARG1
# EXPERIMENTAL DETAILS: RNA-seq of compound-treated primary human hepatocytes, ARG1 expression
# Assay type: cell-based
# EXPERIMENTAL SETUP: 1 μM, primary human hepatocytes, triplicate (Table 17, FIG. 9)
READOUT LABEL: Relative ARGI level vs Untreated (±Standard Deviation)
// no unit, no text: just the number

Complete the entry with Relative ARGI level vs Untreated (±Standard Deviation) for CC(C)c1cc(CNc2nc(Nc3cc(C4CC4)[nH]n3)cc(N3CCN(C)CC3)n2)on1 [XL228]
2.05

State its Relative ARGI level vs Untreated (±Standard Deviation) for this compound: COc1ccc(-c2ccc3c(N4CCOC[C@@H]4C)nc(N4CCOC[C@@H]4C)nc3n2)cc1CO [AZD8055]
1.34

Give the reported Relative ARGI level vs Untreated (±Standard Deviation) for this compound. COc1ccc(-c2ccc3c(N4CCOC[C@@H]4C)nc(N4CCOC[C@@H]4C)nc3n2)cc1CO [AZD-8055]
1.43

Supply reported Relative ARGI level vs Untreated (±Standard Deviation) belonging to this compound: Cc1cc(-c2nc(-c3ccc(OC(F)(F)F)cc3)no2)nn1Cc1ccnc(N2CCN(C3CC3)CC2)c1 [BAY 87-2243]
1.98

Shift focus to the following entry.
Answer with the recorded Relative ARGI level vs Untreated (±Standard Deviation) for the compound listed here: CC(=O)NCC(=O)N1[C@@H]2CC[C@H]1c1ccc(Nc3ncc(C(F)(F)F)c(NC4CCC4)n3)cc12 [PF-3814735]
1.44

---

# Tested on: OTC
# EXPERIMENTAL DETAILS: HSP90 or HSP70 inhibitors in primary human hepatocytes, OTC mRNA
# Assay type: cell-based
# EXPERIMENTAL SETUP: 0.3 uM; hepatocytes from Donor B; normalized to B2M
# Method: Additional small molecules that inhibit HSP90 or HSP70 were tested in primary human hepatocytes as described in Example 2. HSP90 or HSP70 inhibitors were tested in triplicate at 0.3 μM and 3 μM. […] Hepatocytes were incubated with increasing concentrations of HSP90 inhibitors and the changes in OTC and CPS1 expression quantified as previously described. […]
Structures can show the parent of a compound that is named as a salt.
Overview of reported OTC Expression mRNA FC across a group of compounds:
Give the figure only, with no unit attached.

Below: 8 compounds and their reported OTC Expression mRNA FC.
Give OTC Expression mRNA FC for this entry on OTC: C=CCNc1c(O)cc2c(O)c1C[C@@H](C)C[C@H](OC)[C@H](O)[C@@H](C)/C=C(\C)[C@H](OC(N)=O)[C@@H](OC)/C=C\C=C(/C)C(=O)N2 [Retaspimycin Hydrochloride]
2.98

# lookup: OTC OTC Expression mRNA FC, key = `CC1(C)CC(=O)c2c(C(F)(F)F)nn(-c3ccc(C(N)=O)c(N[C@H]4CC[C@H](OC(=O)CN)CC4)c3)c2C1`
1.77

// fetch OTC Expression mRNA FC; item: CO[C@H]1/C=C\C=C(/C)C(=O)NC2=CC(=O)C(NCCN(C)C)=C(C[C@@H](C)C[C@H](OC)[C@H](O)[C@@H](C)/C=C(\C)[C@@H]1OC(N)=O)C2=O [Alvespimycin hydrochloride] ; system: OTC
1.94

Provide the reported OTC Expression mRNA FC (system: OTC) for `CCNC(=O)c1noc(-c2cc(C(C)C)c(O)cc2O)c1-c1ccc(CN2CCOCC2)cc1`
0.81

Answer with OTC Expression mRNA FC of `COc1cccc(-c2cc(F)ccc2[C@H]2Cc3nc(N)nc(C)c3C(=O)N2)n1` measured for OTC.
2.85

# assay system OTC: give OTC Expression mRNA FC of `NS(=O)(=O)C#Cc1ccccc1`
1.20

Please report the measured OTC Expression mRNA FC for `COc1c(C)cnc(Cn2cnc3c(Cl)nc(N)nc32)c1C` tested on OTC.
0.95

# lookup: OTC OTC Expression mRNA FC, key = `C=CCNC1=C2C[C@@H](C)C[C@H](OC)[C@H](O)[C@@H](C)/C=C(\C)[C@H](OC(N)=O)[C@@H](OC)/C=C\C=C(/C)C(=O)NC(=CC1=O)C2=O`
5.01

Please look at the following compound next.
Give reported OTC Expression mRNA FC for CO[C@H]1/C=C\C=C(/C)C(=O)NC2=CC(=O)C(NCCN(C)C)=C(C[C@@H](C)C[C@H](OC)[C@H](O)[C@@H](C)/C=C(\C)[C@@H]1OC(N)=O)C2=O [Alvespimycin] (OTC)
3.03
